# study target: SFRP-1 (Homo sapiens)
# experiment notes: Cell-based assay for in vitro measurement of SFRP-1/SARP2 antagonist activity (U2OS cells co-transfected with 16x TCF-tk-Luciferase reporter, Wnt and hSFRP-1)
pEC50: −log10 of the molar value.
endpoint: pEC50

[
  {
    "compound": "O=S(=O)(NCCC1CCNCC1)c1cc(S(=O)(=O)c2ccccc2)ccc1C(F)(F)F",
    "pEC50": 5.64
  }
]

a = CC(C)c1ccc(S(=O)(=O)c2ccc(F)cc2)cc1S(=O)(=O)NCCC1CCCNC1 (stereo not shown)
b = O=C(c1ccc(-c2ccccc2)nc1)N1CCC(NS(=O)(=O)c2cc(S(=O)(=O)c3ccccc3)ccc2C(F)(F)F)CC1
c = CC(C)c1ccc(S(=O)(=O)c2ccc(F)cc2)cc1S(=O)(=O)NC1CCN(C(=S)Nc2cccc(C(=O)O)c2)CC1
Put the compounds in ascending order of pEC50. List labels; respect the requested ordering. a, c, b

a = COc1cccc(S(=O)(=O)c2ccc(C(F)(F)F)c(S(=O)(=O)NCCC#N)c2)c1
b = CN(CCO)CCNS(=O)(=O)c1cc(S(=O)(=O)c2ccccc2)ccc1C(F)(F)F
c = COc1ccccc1C(=O)N1CCC(NS(=O)(=O)c2cc(S(=O)(=O)c3ccccc3)ccc2C(F)(F)F)CC1
# desc sort on pEC50 across 3 compounds Lab note: record answer as labels in requested order. a, c, b

---

# study target: SFRP-1 (Homo sapiens)
# Sequence (Q8N474 32-314): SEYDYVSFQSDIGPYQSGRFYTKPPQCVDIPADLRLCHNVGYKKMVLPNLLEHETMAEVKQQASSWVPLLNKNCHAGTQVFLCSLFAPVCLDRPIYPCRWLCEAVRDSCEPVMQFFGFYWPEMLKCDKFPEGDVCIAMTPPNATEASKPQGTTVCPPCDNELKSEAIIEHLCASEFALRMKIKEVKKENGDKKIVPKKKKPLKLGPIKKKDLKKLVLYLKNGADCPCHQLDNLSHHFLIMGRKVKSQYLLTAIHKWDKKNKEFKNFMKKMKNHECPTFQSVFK
# experiment notes: Cell-based assay for in vitro measurement of SFRP-1/SARP2 antagonist activity (U2OS cells co-transfected with 16x TCF-tk-Luciferase reporter, Wnt and hSFRP-1)
# assay conditions: U2OS, read-out: Fold Induction with SFRP-1, Conc 15 μM; with SFRP-1; fold induction over SFRP-1 control, single dose
endpoint: fold induction at 15 µM

Consider the following illustrative entries.
[
  {
    "molecule": "CCc1ccc(S(=O)(=O)c2ccccc2)cc1S(=O)(=O)NCCCn1ccnc1",
    "endpoint": "fold induction at 15 µM",
    "reported": 3.4
  },
  {
    "molecule": "Cc1ccc(S(=O)(=O)c2ccc(NC(C)c3ccccc3)cc2)cc1S(=O)(=O)NCCCn1ccnc1 (stereo not shown)",
    "endpoint": "fold induction at 15 µM",
    "reported": 3.4
  },
  {
    "molecule": "COc1cccc(CCNS(=O)(=O)c2cccc(S(=O)(=O)c3ccccc3)c2)c1",
    "endpoint": "fold induction at 15 µM",
    "reported": 1.2
  },
  {
    "molecule": "CCc1ccc(S(=O)(=O)c2ccccc2)cc1S(=O)(=O)N1CCN(CCN(CC)CC)CC1",
    "endpoint": "fold induction at 15 µM",
    "reported": 2
  },
  {
    "molecule": "O=S(=O)(NCCc1ccccn1)c1cc(S(=O)(=O)c2ccc(F)cc2)ccc1C1CCCCC1",
    "endpoint": "fold induction at 15 µM",
    "reported": 1.1
  }
]

A = Cc1ccc(S(=O)(=O)c2ccoc2C)cc1S(=O)(=O)NCCCn1ccnc1
B = Cc1ccc(S(=O)(=O)c2ccc(C)c(S(=O)(=O)N(C)CCc3ccccc3F)c2)cc1
C = Cc1ccc(S(=O)(=O)c2ccc(F)cc2)cc1S(=O)(=O)NCCCn1ccnc1
D = COc1ccc(S(=O)(=O)c2ccccc2)cc1S(=O)(=O)NCCc1c[nH]cn1
Falling order of fold induction at 15 µM, please. // ordering of labels required in reply C, A, D, B
(C: 3.6, A: 2.1, D: 1.2, B: 0.8)

---

# study target: SFRP-1 (Homo sapiens)
# experiment notes: Cell-based assay for in vitro measurement of SFRP-1/SARP2 antagonist activity (U2OS cells co-transfected with 16x TCF-tk-Luciferase reporter, Wnt and hSFRP-1)
# assay conditions: U2OS, read-out: Fold Induction with SFRP-1, Conc 15 μM; single dose; luciferase reporter, fold induction over SFRP-1 control; cells with SFRP-1
endpoint: fold induction at 15 µM

[
  {
    "smiles structure": "CNc1ccc(S(=O)(=O)c2ccc(C(C)C)c(S(=O)(=O)NC3CCN(C(=O)OC(C)(C)C)CC3)c2)cc1",
    "fold induction at 15 µM": 2.5
  }
]

A = O=S(=O)(NCCc1ccccn1)c1cc(S(=O)(=O)c2ccccc2)ccc1C(F)(F)F
B = Cc1ccc(S(=O)(=O)c2ccccc2)cc1S(=O)(=O)NC1CCN(C(=O)c2ccc3ccccc3c2)CC1
Could you kindly indicate whether A or B has the higher fold induction at 15 µM value? Field: selected label. Fill in the label of the entry you choose. A
(A: 3.1, B: 1.9)

I = Cc1ccc(S(=O)(=O)c2ccc(F)cc2)cc1S(=O)(=O)NC1CCN(C(=O)N(C)C)CC1
II = CC(C)c1cc(C(C)C)c(S(=O)(=O)c2ccccc2)cc1S(=O)(=O)NC1CCOCC1
Select one. Lower fold induction at 15 µM: I or II // return label of chosen record I

A = Cc1ccc(S(=O)(=O)c2cc(Cl)cc(C#N)c2)cc1S(=O)(=O)NCCc1ccccn1
B = Cc1ccc(S(=O)(=O)c2ccccc2)cc1S(=O)(=O)NC1CCN(C(=O)NC2CCCCC2)CC1
When A and B are compared, which has the higher number for fold induction at 15 µM? Your answer should be the label of the entry you select. A
(A: 1.6, B: 1.1)

---

# study target: SFRP-1 (Homo sapiens, UniProt Q8N474)
# Sequence (Q8N474 32-314): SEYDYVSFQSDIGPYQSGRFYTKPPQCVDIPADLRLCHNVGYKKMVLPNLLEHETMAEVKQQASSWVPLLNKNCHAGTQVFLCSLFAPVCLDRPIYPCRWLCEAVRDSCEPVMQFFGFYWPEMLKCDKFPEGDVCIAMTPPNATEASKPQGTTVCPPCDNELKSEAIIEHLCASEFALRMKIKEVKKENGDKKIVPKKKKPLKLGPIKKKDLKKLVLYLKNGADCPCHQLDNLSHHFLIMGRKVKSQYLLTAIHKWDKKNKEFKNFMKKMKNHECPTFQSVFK
# experiment notes: Cell-based assay for in vitro measurement of SFRP-1/SARP2 antagonist activity (U2OS cells co-transfected with 16x TCF-tk-Luciferase reporter, Wnt and hSFRP-1)
# assay conditions: U2OS, read-out: Fold Induction with SFRP-1, U2OS cells, single dose 10 μM, luciferase reporter, fold induction over SFRP-1 control
endpoint: fold induction at 10 µM

[
  {
    "compound": "CCCCNC(=O)N(C)CCNS(=O)(=O)c1cc(S(=O)(=O)c2ccccc2)ccc1C(F)(F)F",
    "study target": "SFRP-1 (Homo sapiens, UniProt Q8N474)",
    "endpoint": "fold induction at 10 µM",
    "reported": 3.7
  }
]

P = O=C(c1ccccc1OC(F)(F)F)N1CCC(NS(=O)(=O)c2cc(S(=O)(=O)c3ccccc3)ccc2C(F)(F)F)CC1
Q = CC(C)c1ccc(S(=O)(=O)c2ccc(F)cc2)cc1S(=O)(=O)NC(CO)C(C)C (stereo not shown)
Response body: label of entry with the larger fold induction at 10 µM; valid values P , Q . Which one? Tell me its label. P
(P: 3.4, Q: 1.6)

---

# study target: SFRP-1 (Homo sapiens, UniProt Q8N474)
# experiment notes: Cell-based assay for in vitro measurement of SFRP-1/SARP2 antagonist activity (U2OS cells co-transfected with 16x TCF-tk-Luciferase reporter, Wnt and hSFRP-1)
endpoint: EC50 (nM)

I = CC(C)(C)OC(=O)N1CCC(NC(=O)NCCNS(=O)(=O)c2cc(S(=O)(=O)c3ccccc3)ccc2C(F)(F)F)CC1 [Example 1046]
II = O=C(c1ccc(C(F)(F)F)cc1)N1CCC(NS(=O)(=O)c2cc(S(=O)(=O)c3ccccc3)ccc2Cl)CC1 [Example 658]
Lower value of EC50 belongs to which: I or II ? Answer by quoting the chosen item's label. I
(I: 3440 nM, II: 6350 nM)

---

# study target: SFRP-1 (Homo sapiens, UniProt Q8N474)
# experiment notes: Cell-based assay for in vitro measurement of SFRP-1/SARP2 antagonist activity (U2OS cells co-transfected with 16x TCF-tk-Luciferase reporter, Wnt and hSFRP-1);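 also: U2OS cells co-transfected with a TCF-tk luciferase reporter, a Wnt vector, hSFRP-1 or empty vector and CMV-βgal, luciferase luminescence read in cell lysates alongside βgal activity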
# assay conditions: U2OS, read-out: Fold Induction without SFRP-1, Conc 30 μM; without SFRP-1, single dose
endpoint: fold induction at 30 µM

Sample answers from the record:
[
  {
    "molecule": "Cc1ccc(S(=O)(=O)c2ccc(Cl)cc2)cc1S(=O)(=O)NCCc1ccccc1Cl",
    "reported": 0.5
  },
  {
    "molecule": "O=S(=O)(NCCCn1ccnc1)c1cccc(S(=O)(=O)c2ccccc2)c1",
    "reported": 1
  },
  {
    "molecule": "O=C1CCCN1CCCNS(=O)(=O)c1cccc(S(=O)(=O)c2ccccc2)c1",
    "reported": 1.1
  },
  {
    "molecule": "COc1ccccc1CCNS(=O)(=O)c1cc(S(=O)(=O)c2ccc(F)cc2)ccc1C",
    "reported": 0.1
  },
  {
    "molecule": "Cc1ccc(S(=O)(=O)c2ccccc2)cc1S(=O)(=O)NCCc1ccc2c(c1)OCO2",
    "reported": 1
  }
]

a = CN1CCCC1CCNS(=O)(=O)c1cccc(S(=O)(=O)c2ccccc2)c1 (centres unmarked)
b = COc1ccccc1CCNS(=O)(=O)c1cc(S(=O)(=O)c2ccccc2)ccc1C
Higher fold induction at 30 µM between a and b ? Return value: the label identifying the chosen record. a
(a: 1.3, b: 0.5)
